# System: Beta-2 adrenergic receptor (Homo sapiens)
# Sequence (P07550 whole entry): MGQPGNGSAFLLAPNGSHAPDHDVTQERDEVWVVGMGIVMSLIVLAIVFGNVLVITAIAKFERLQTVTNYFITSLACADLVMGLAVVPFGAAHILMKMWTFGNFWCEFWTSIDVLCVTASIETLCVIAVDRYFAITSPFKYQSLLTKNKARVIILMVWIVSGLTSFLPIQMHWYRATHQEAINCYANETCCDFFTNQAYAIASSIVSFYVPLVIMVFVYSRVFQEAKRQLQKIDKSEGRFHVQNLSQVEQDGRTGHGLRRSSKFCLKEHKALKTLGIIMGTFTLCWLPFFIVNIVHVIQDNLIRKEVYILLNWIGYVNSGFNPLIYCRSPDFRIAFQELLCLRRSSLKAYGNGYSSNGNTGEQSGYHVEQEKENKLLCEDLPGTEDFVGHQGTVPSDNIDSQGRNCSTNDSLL
# Procedure Text: Binding affinity to the human beta-2 adrenergic receptor assayed using [125I]iodocyanopindolol as radioligand in CHO cells
Label MET when IC50 is strictly below 0.4 µM; at or above that, label NOT MET.

A selection of reference data follows.
Hello, is IC50 of the following compound strictly smaller than 0.4 µM? `CCCCCCCCc1csc(N2CCc3cc(S(=O)(=O)Nc4ccc(CCNC[C@H](O)c5cccnc5)cc4)ccc32)n1`
NOT MET

Hello, is IC50 of the following compound strictly smaller than 0.4 µM? `CCCCCCCCc1csc(N2CCc3cc(NC(=NC#N)Nc4ccc(CCNC[C@H](O)c5cccnc5)cc4)ccc32)n1`
MET

Hello, is IC50 of the following compound strictly smaller than 0.4 µM? `N#CN=C(Nc1ccc(CCNC[C@H](O)c2cccnc2)cc1)Nc1cccc(F)c1`
MET

Hello, is IC50 of the following compound strictly smaller than 0.4 µM? `N#CN/C(=N\c1cc(Cl)cc(Cl)c1)Nc1ccc(CCNC[C@H](O)c2cccnc2)cc1`
MET

***
Hello, is IC50 of the following compound strictly smaller than 0.4 µM? `CCCCCCCCc1csc(N2CCc3cc(N/C(S)=N/c4ccc(CCNC[C@H](O)c5cccnc5)cc4)ccc32)n1`
MET

Hello, is IC50 of the following compound strictly smaller than 0.4 µM? `N#CN=C(Nc1ccc(CCNC[C@H](O)c2cccnc2)cc1)Nc1ccc2ccccc2c1`
MET

Hello, is IC50 of the following compound strictly smaller than 0.4 µM? `O=[N+]([O-])/C=C(\Nc1ccc(CCNC[C@H](O)c2cccnc2)cc1)Nc1ccc2ccccc2c1`
NOT MET

Hello, is IC50 of the following compound strictly smaller than 0.4 µM? `O=[N+]([O-])/C=C(\Nc1ccc(CCNC[C@H](O)c2cccnc2)cc1)Nc1cccc(I)c1`
NOT MET

Hello, is IC50 of the following compound strictly smaller than 0.4 µM? `O=[N+]([O-])/C=C(\Nc1ccc(CCNC[C@H](O)c2cccnc2)cc1)Nc1cccc(F)c1`
NOT MET

Hello, is IC50 of the following compound strictly smaller than 0.4 µM? `N#CN=C(Nc1ccc(CCNC[C@H](O)c2cccnc2)cc1)Nc1cccc(I)c1`
MET

Hello, is IC50 of the following compound strictly smaller than 0.4 µM? `N#CN=C(Nc1ccc2c(c1)CCN2c1nc(-c2ccc(OC(F)(F)F)cc2)cs1)Nc1ccc2cc(CCNC[C@H](O)c3cccnc3)ccc2c1`
NOT MET

Hello, is IC50 of the following compound strictly smaller than 0.4 µM? `O=[N+]([O-])/C=C(\Nc1ccc(CCNC[C@H](O)c2cccnc2)cc1)Nc1cccc(Oc2ccccc2)c1`
MET

Hello, is IC50 of the following compound strictly smaller than 0.4 µM? `N#CN/C(=N\c1cccc2c1CCN2c1nc(-c2ccc(OC(F)(F)F)cc2)cs1)Nc1ccc(CCNC[C@H](O)c2cccnc2)cc1`
NOT MET

Hello, is IC50 of the following compound strictly smaller than 0.4 µM? `O=[N+]([O-])/C=C(\Nc1ccc(CCNC[C@H](O)c2cccnc2)cc1)Nc1cc(Cl)cc(Cl)c1`
NOT MET

Hello, is IC50 of the following compound strictly smaller than 0.4 µM? `N#CN/C(=N\c1ccc2c(c1)N(c1nc(-c3ccc(OC(F)(F)F)cc3)cs1)CC2)Nc1ccc(CCNC[C@H](O)c2cccnc2)cc1`
NOT MET

Hello, is IC50 of the following compound strictly smaller than 0.4 µM? `CCCCCCCCc1csc(N2CCc3c(N/C(=N/c4ccc(CCNC[C@H](O)c5cccnc5)cc4)NC#N)cccc32)n1`
NOT MET

* * *

# System: UniProt P08588
# Procedure Text: Binding affinity for human Beta-1 adrenergic receptor using [125I]iodocyanopindolol as radioligand in CHO cells
Label rule met when IC50 is strictly below 0.7 µM; at or above that, label rule not met.

Hello, is IC50 of the following compound strictly smaller than 0.7 µM? `N#CN=C(Nc1ccc(CCNC[C@H](O)c2cccnc2)cc1)Nc1ccc2c(c1)CCN2c1nc(-c2ccc(OC(F)(F)F)cc2)cs1`
rule met

***
Hello, is IC50 of the following compound strictly smaller than 0.7 µM? `N#CN=C(Nc1ccc(CCNC[C@H](O)c2cccnc2)cc1)Nc1ccc2ccccc2c1`
rule not met

* * *

# System: Beta-3 adrenergic receptor (Homo sapiens)
# Sequence (P13945 whole entry): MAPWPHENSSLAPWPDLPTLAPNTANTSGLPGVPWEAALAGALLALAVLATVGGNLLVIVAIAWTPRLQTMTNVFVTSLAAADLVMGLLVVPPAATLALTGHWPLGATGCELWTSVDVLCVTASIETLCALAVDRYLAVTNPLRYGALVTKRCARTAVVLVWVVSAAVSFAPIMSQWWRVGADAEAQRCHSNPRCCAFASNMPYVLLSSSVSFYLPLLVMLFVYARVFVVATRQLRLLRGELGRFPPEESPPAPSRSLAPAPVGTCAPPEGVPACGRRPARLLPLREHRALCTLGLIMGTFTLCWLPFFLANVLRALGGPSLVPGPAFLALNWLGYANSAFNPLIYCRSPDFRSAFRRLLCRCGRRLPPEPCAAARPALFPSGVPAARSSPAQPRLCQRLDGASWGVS
# Procedure Text: In vitro efficacy at human beta-3 adrenergic receptor.
This section presents compounds with their documented pEC50 values.
Scale explanation: pEC50 corresponds to minus log10 of a concentration expressed in moles per litre.

Assay Beta-3 adrenergic receptor (Homo sapiens), sample `N#CN/C(=N\c1ccc(CCNC[C@H](O)c2cccnc2)cc1)Nc1cccc(C(N)=O)c1` , pEC50 read: 6.82

***
Assay Beta-3 adrenergic receptor (Homo sapiens), sample `CCCCCCCCc1csc(N2CCc3cc(NC(=NC#N)Nc4ccc(CCNC[C@H](O)c5cccnc5)cc4)ccc32)n1` , pEC50 read: 7.96

Assay Beta-3 adrenergic receptor (Homo sapiens), sample `N#CN=C(Nc1ccc(CCNC[C@H](O)c2cccnc2)cc1)Nc1ccc2ccccc2c1` , pEC50 read: 6.89

Assay Beta-3 adrenergic receptor (Homo sapiens), sample `CCCCCCCCc1csc(N2CCc3cc(N/C(S)=N/c4ccc(CCNC[C@H](O)c5cccnc5)cc4)ccc32)n1` , pEC50 read: 8.28

Assay Beta-3 adrenergic receptor (Homo sapiens), sample `O=[N+]([O-])/C=C(\Nc1ccc(CCNC[C@H](O)c2cccnc2)cc1)Nc1cccc2ccccc12` , pEC50 read: 6.85

* * *

# System: Beta-1 adrenergic receptor (Homo sapiens, UniProt P08588)
# Sequence (P08588 whole entry): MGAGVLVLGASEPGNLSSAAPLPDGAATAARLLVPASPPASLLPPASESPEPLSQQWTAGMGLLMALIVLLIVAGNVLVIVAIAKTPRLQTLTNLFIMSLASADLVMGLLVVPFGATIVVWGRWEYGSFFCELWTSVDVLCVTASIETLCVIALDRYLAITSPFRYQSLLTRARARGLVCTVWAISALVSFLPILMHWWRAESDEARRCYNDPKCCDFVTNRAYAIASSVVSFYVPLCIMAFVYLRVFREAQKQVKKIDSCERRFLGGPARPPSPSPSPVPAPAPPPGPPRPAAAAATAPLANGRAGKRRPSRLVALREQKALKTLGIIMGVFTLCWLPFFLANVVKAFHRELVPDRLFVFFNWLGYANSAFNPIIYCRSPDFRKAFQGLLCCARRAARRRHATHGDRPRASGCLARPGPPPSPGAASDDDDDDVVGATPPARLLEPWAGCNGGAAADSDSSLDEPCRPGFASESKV
# Procedure Text: Binding affinity for human Beta-1 adrenergic receptor using [125I]iodocyanopindolol as radioligand in CHO cells
Quantity Name: IC50 (nM)
Write it as a number; the unit nM goes unstated.

As a guide, the following entries are already answered.
Assay Beta-1 adrenergic receptor (Homo sapiens, UniProt P08588), sample `N#CN=C(Nc1ccc(CCNC[C@H](O)c2cccnc2)cc1)Nc1cccc2ccccc12` , IC50 read: 480

Assay Beta-1 adrenergic receptor (Homo sapiens, UniProt P08588), sample `O=[N+]([O-])/C=C(\Nc1ccc(CCNC[C@H](O)c2cccnc2)cc1)Nc1cc(Cl)cc(Cl)c1` , IC50 read: 3800

// switching to the query compound
Assay Beta-1 adrenergic receptor (Homo sapiens, UniProt P08588), sample `N#CN/C(=N\c1ccc2c(c1)N(c1nc(-c3ccc(OC(F)(F)F)cc3)cs1)CC2)Nc1ccc(CCNC[C@H](O)c2cccnc2)cc1` , IC50 read: 620

* * *

This section presents molecules with their documented log10 IC50 values.
# System: Beta-1 adrenergic receptor (Homo sapiens)
# Procedure Text: Binding affinity for human Beta-1 adrenergic receptor using [125I]iodocyanopindolol as radioligand in CHO cells
Scale type: logarithmic (base 10). Underlying IC50 unit: nM.

As a guide, the following entries are already answered.
// log10 IC50 lookup, molecule = `O=[N+]([O-])/C=C(\Nc1ccc(CCNC[C@H](O)c2cccnc2)cc1)Nc1cccc(F)c1` , result: 3.48

// log10 IC50 lookup, molecule = `N#CN=C(Nc1ccc(CCNC[C@H](O)c2cccnc2)cc1)Nc1cccc(F)c1` , result: 2.77

// log10 IC50 lookup, molecule = `N#CN/C(=N\c1cc(Cl)cc(Cl)c1)Nc1ccc(CCNC[C@H](O)c2cccnc2)cc1` , result: 2.46

// log10 IC50 lookup, molecule = `O=[N+]([O-])/C=C(\Nc1ccc(CCNC[C@H](O)c2cccnc2)cc1)Nc1cccc(Oc2ccccc2)c1` , result: 2.92

***
// log10 IC50 lookup, molecule = `N#CN/C(=N\c1cccc(Oc2ccccc2)c1)Nc1ccc(CCNC[C@H](O)c2cccnc2)cc1` , result: 2.38

// log10 IC50 lookup, molecule = `CCCCCCCCc1csc(N2CCc3cc(NC(=NC#N)Nc4ccc(CCNC[C@H](O)c5cccnc5)cc4)ccc32)n1` , result: 1.20

// log10 IC50 lookup, molecule = `N#CN=C(Nc1ccc(CCNC[C@H](O)c2cccnc2)cc1)Nc1cccc(I)c1` , result: 2.36

// log10 IC50 lookup, molecule = `O=[N+]([O-])/C=C(\Nc1ccc(CCNC[C@H](O)c2cccnc2)cc1)Nc1ccc2ccccc2c1` , result: 2.91

// log10 IC50 lookup, molecule = `CCCCCCCCc1csc(N2CCc3cc(N/C(S)=N/c4ccc(CCNC[C@H](O)c5cccnc5)cc4)ccc32)n1` , result: 2.04

* * *

# System: Beta-1 adrenergic receptor (Homo sapiens)
# Procedure Text: Binding affinity for human Beta-1 adrenergic receptor using [125I]iodocyanopindolol as radioligand in CHO cells
Quantity Name: pIC50
Scale explanation: pIC50 corresponds to minus log10 of a concentration expressed in moles per litre.

As a guide, the following entries are already answered.
Assay Beta-1 adrenergic receptor (Homo sapiens), sample `CCCCCCCCc1csc(N2CCc3c(N/C(=N/c4ccc(CCNC[C@H](O)c5cccnc5)cc4)NC#N)cccc32)n1` , pIC50 read: 5.92

Assay Beta-1 adrenergic receptor (Homo sapiens), sample `CCCCCCCCc1csc(N2CCc3cc(S(=O)(=O)Nc4ccc(CCNC[C@H](O)c5cccnc5)cc4)ccc32)n1` , pIC50 read: 5.60

Assay Beta-1 adrenergic receptor (Homo sapiens), sample `O=[N+]([O-])/C=C(\Nc1ccc(CCNC[C@H](O)c2cccnc2)cc1)Nc1cccc(I)c1` , pIC50 read: 5.96

***
Assay Beta-1 adrenergic receptor (Homo sapiens), sample `N#CN/C(=N\c1cccc2c1CCN2c1nc(-c2ccc(OC(F)(F)F)cc2)cs1)Nc1ccc(CCNC[C@H](O)c2cccnc2)cc1` , pIC50 read: 5.08

These entries and their values trace back to ChEMBL document CHEMBL1134823.
